assay_target: ERR1 (also known as ERR-α or ERR-1) (Homo sapiens)
experiment_description: TR-FRET assay (disruption of co-activator peptide binding to ERR1 LBD)
measurement_parameters: 6 nM 6His-ERR1LBD, 6 nM GST-SRC-2 peptide; average of 3 independent experiments
Give log10 EC50 for every item shown.
Please note: log10 values; quantity EC50; unit nM.

Consider the reported log10 EC50 for these molecules:
- molecule: "CC(C)N(CCO)CCN1C(=O)S/C(=C\\c2ccc3c(cnn3Cc3ccc(Cl)cc3C(F)(F)F)c2)C1=O"
  assay_result: 1.67
- molecule: "CN1CCO[C@H](CN2C(=O)S/C(=C\\c3ccc4c(cnn4Cc4ccc(Cl)cc4C(F)(F)F)c3)C2=O)C1"
  assay_result: 1.65
- molecule: "Cn1cncc1CN1C(=O)S/C(=C\\c2ccc3c(cnn3Cc3ccc(Cl)cc3C(F)(F)F)c2)C1=O"
  assay_result: 1.20
- molecule: "CS(=O)(=O)NC(=O)CN1C(=O)S/C(=C\\c2ccc3c(cnn3Cc3ccc(F)cc3C(F)(F)F)c2)C1=O"
  assay_result: 2.44
- molecule: "N#CCN1CC[C@@H](N2C(=O)S/C(=C\\c3ccc4c(cnn4Cc4ccc(Cl)cc4C(F)(F)F)c3)C2=O)[C@H](F)C1 (relative stereo) [Compound 338]"
  assay_result: 1.38

For every item in the list below, what is its measured log10 EC50?
1. O=C1S/C(=C\c2ccc3c(cnn3Cc3ccc(C(F)(F)F)cc3C(F)(F)F)c2)C(=O)N1[C@@H]1CNCC[C@@H]1F (relative stereo)
2. Cc1nn(Cc2ccc(Cl)cc2C(F)(F)F)c2ccc(/C=C3\SC(=O)N(NS(C)(=O)=O)C3=O)cc12

Return:
[1.15, 1.36]

###

Give EC50 for every item shown.
assay_target: ERR1 (also known as ERR-α or ERR-1) (Homo sapiens)
Sequence (P11474 193-421 limits assumed): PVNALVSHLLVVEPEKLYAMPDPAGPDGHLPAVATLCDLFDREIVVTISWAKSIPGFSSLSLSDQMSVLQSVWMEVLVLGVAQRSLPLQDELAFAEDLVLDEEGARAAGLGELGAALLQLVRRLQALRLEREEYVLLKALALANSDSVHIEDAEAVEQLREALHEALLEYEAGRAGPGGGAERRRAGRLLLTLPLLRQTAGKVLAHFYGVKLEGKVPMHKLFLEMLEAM
experiment_description: TR-FRET assay (disruption of co-activator peptide binding to ERR1 LBD)
measurement_parameters: 6 nM 6His-ERR1LBD, 6 nM GST-SRC-2 peptide; average of 3 independent experiments
Give bare numbers, in nM.

- molecule: "O=C1S/C(=C\\c2ccc3c(cnn3Cc3ccc(Cl)cc3C(F)(F)F)c2)C(=O)N1[C@@H]1CCNC[C@H]1O (relative stereo) [Compound 270]"
  assay_target: "ERR1 (also known as ERR-α or ERR-1) (Homo sapiens)"
  assay_result: 25
- molecule: "NC1(CCN2C(=O)S/C(=C\\c3ccc4c(cnn4Cc4ccc(Cl)cc4C(F)(F)F)c3)C2=O)CCOCC1 [Compound 312]"
  assay_target: "ERR1 (also known as ERR-α or ERR-1) (Homo sapiens)"
  assay_result: 65
- molecule: "O=C1S/C(=C\\c2ccc3c(cnn3Cc3ccc(Cl)cc3C(F)(F)F)c2)C(=O)N1CCN1C[C@@H]2C[C@H]1CN2 [Compound 78]"
  assay_target: "ERR1 (also known as ERR-α or ERR-1) (Homo sapiens)"
  assay_result: 41
- molecule: "CC(C)N1C[C@@H](N2C(=O)S/C(=C\\c3ccc4c(cnn4Cc4ccc(Cl)cc4C(F)(F)F)c3)C2=O)[C@@H](F)C1 (relative stereo) [Compound 325]"
  assay_target: "ERR1 (also known as ERR-α or ERR-1) (Homo sapiens)"
  assay_result: 87
- molecule: "O=C1S/C(=C\\c2ccc3c(cnn3Cc3ccc(Cl)cc3C(F)(F)F)c2)C(=O)N1CCNS(=O)(=O)c1ccc(C(F)(F)F)cc1 [Compound 392]"
  assay_target: "ERR1 (also known as ERR-α or ERR-1) (Homo sapiens)"
  assay_result: 215

For every item in the list below, what is its measured EC50?
1. O=C1S/C(=C\c2ccc3c(cnn3Cc3ccc(Cl)cc3C(F)(F)F)c2)C(=O)N1Cc1c[nH]nn1 [Compound 85]
2. CN1CCCC(N2C(=O)S/C(=C\c3ccc4c(cnn4Cc4ccc(Cl)cc4C(F)(F)F)c3)C2=O)C1 (centres unmarked) [Compound 136]

Return:
[136, 35]

For every item in the list below, what is its measured EC50?
1. O=C1S/C(=C\c2ccc3c(cnn3Cc3ccc(Cl)cc3C(F)(F)F)c2)C(=O)N1C1(C(=O)O)CCNCC1 [Compound 230]
2. N=C(N)NC(=O)CN1C(=O)S/C(=C\c2ccc3c(cnn3Cc3ccc(Cl)cc3C(F)(F)F)c2)C1=O [Compound 56]
3. O=C1S/C(=C\c2ccc3c(cnn3Cc3ccc(Cl)cc3C(F)(F)F)c2)C(=O)N1[C@@H]1CNC[C@H]1F (relative stereo) [Compound 317]

Return:
16
22
12

For every item in the list below, what is its measured EC50?
1. O=C1S/C(=C\c2ccc3c(cnn3Cc3ccc(Cl)cc3C(F)(F)F)c2)C(=O)N1[C@@H]1CCN(CCO)C[C@H]1F (relative stereo) [Compound 327]
2. O=C1S/C(=C\c2ccc3c(cnn3Cc3ccc(Cl)cc3C(F)(F)F)c2)C(=O)N1Cc1nn[nH]n1 [Compound 72]
3. O=C1S/C(=C\c2ccc3c(cnn3Cc3ccc(Cl)cc3C(F)(F)F)c2)C(=O)N1CC1(F)CCN(CCO)CC1 [Compound 305]
4. O=C(CN1C(=O)S/C(=C\c2ccc3c(c2)nnn3Cc2ccc(Cl)cc2C(F)(F)F)C1=O)NS(=O)(=O)N1CCCC1 [Compound 268]
5. O=C(CN1C(=O)S/C(=C\c2ccc3c(ccn3Cc3ccc(C(F)(F)F)cc3C(F)(F)F)c2)C1=O)N1CCOCC1 [Compound 241]
6. O=C(O)C1CCC(N2C(=O)S/C(=C\c3ccc4c(c3)nnn4Cc3ccc(Cl)cc3C(F)(F)F)C2=O)CC1 (centres unmarked) [Compound 266]
7. O=C1S/C(=C\c2ccc3c(cnn3Cc3ccc(Cl)cc3C(F)(F)F)c2)C(=O)N1CCN1CCC1 [Compound 120]
8. Cc1nn(Cc2ccc(Cl)cc2C(F)(F)F)c2ccc(/C=C3\SC(=O)N(CC(=O)O)C3=O)cc12 [Compound 36]

Return:
1: 21; 2: 13; 3: 3; 4: 46; 5: 100; 6: 29; 7: 220; 8: 28

The values you see were collected from patent US8796256B2.
